The reported numbers originate from PubChem BioAssay (NCATS).

target: Cytochrome P450 3A4 (Homo sapiens); test: Cytochrome P450 family 3 subfamily A member 4 (CYP3A4) small molecule antagonists: luciferase qHTS assay (AID 1645841); conditions: P450-Glo CYP3A4 enzyme assay, luciferin luminescence; series mostly up to 57.4 µM; note: nearly all actives have a fitted effect of over 45% in size
Inconclusive results are not listed. Active and inactive are the calls of the source. Calls come from the whole dose curve; as a rule, active = well fitted inhibition curve with a large enough effect in the repeat runs; inconclusive = weak or mixed curves; inactive = no such curve, though single readings can be large or run the other way.
Your reply should match one of these outcome classes. class 1 (active), class 0 (inactive)

Here's what some known entries look like.
[
  {
    "COMPOUND": "COCCN(C)Cc1ccc2nc3sc(C(=O)N(C)C4CCCCC4)cn3c2c1",
    "CAT": "class 0"
  },
  {
    "COMPOUND": "O=C(C1CC1)N1CC[C@@H](Cc2n[nH]c(=O)n2-c2ccc(-c3ccc4occc4c3)cc2)C1",
    "CAT": "class 1"
  },
  {
    "COMPOUND": "COc1cc2c(Nc3ccc(Cl)c(Cl)c3F)ncnc2cc1OCC1C[C@@H]2CN(C)C[C@@H]2C1 (some centres undefined)",
    "CAT": "class 0"
  }
]

Below: the item to evaluate.
Query :: Dear all, I need the recorded test outcome for `Nc1nc(N)c2nc(CNc3ccc(C(=O)N[C@@H](CCC(=O)O)C(=O)O)cc3)cnc2n1` , thank you.
Result :: class 0
